# System: NCI-H1563
# test.method.notes: relative viability (nuclei count vs DMSO), 5 days (fraction); higher = more cells survive
# condition.info: first compound 0.1 µM
Could you please mark YES for values of relative viability below 0.8 and NO for values at or above it?

Answered examples (4):
>>> label("O=c1cc(N2CCOCC2)oc2c(-c3cccc4c3sc3ccccc34)cccc12 + COc1cccc2cc(-c3nc([C@H]4CC[C@H](C(=O)O)CC4)n4ncnc(N)c34)[nH]c12 [OSI-027] (partner 0.5 µM)")
"YES"
>>> label("CCN(CC)CCCCNc1ncc2cc(-c3cc(OC)cc(OC)c3)c(NC(=O)NC(C)(C)C)nc2n1 + Nc1nc2[nH]cc(CCc3ccc(C(=O)N[C@@H](CCC(=O)O)C(=O)O)cc3)c2c(=O)[nH]1 [Pemetrexed] (partner 0.2 µM)")
"NO"
>>> label("O=c1cc(N2CCOCC2)oc2c(-c3cccc4c3sc3ccccc34)cccc12 + Cc1nc(NC(=O)N2CCC[C@H]2C(N)=O)sc1-c1ccnc(C(C)(C)C(F)(F)F)c1 [Alpelisib] (partner 2 µM)")
"NO"
>>> label("O=c1cc(N2CCOCC2)oc2c(-c3cccc4c3sc3ccccc34)cccc12 + N=C(N)NC(=N)NCCc1ccccc1 [Phenformin] (partner 250 µM)")
"YES"

Next, consider the following molecule.
-- ask Determine if CCN(CC)CCCCNc1ncc2cc(-c3cc(OC)cc(OC)c3)c(NC(=O)NC(C)(C)C)nc2n1 + CS(=O)(=O)N1CCN(Cc2cc3nc(-c4cccc5[nH]ncc45)nc(N4CCOCC4)c3s2)CC1 [Pictilisib] (partner 1 µM) shows relative viability strictly lower than 0.8.
-- reply YES

---

Reported relative viability is given for each of the following molecules.
# Test system: NCI-H1437
# test.method.notes: relative viability (nuclei count vs DMSO), 5 days (fraction); higher = more cells survive
# condition.info: first compound 0.253 µM

Recorded relative viability, per entry:
>>> reported_measurement("COc1nc(C)cnc1NS(=O)(=O)c1cccnc1-c1ccc(-c2nnco2)cc1 [Zibotentan] + Nc1ncn([C@H]2C[C@H](O)[C@@H](CO)O2)c(=O)n1 [Decitabine] (partner 2 µM)")
0.545
>>> reported_measurement("O=c1cc(-c2cccc3c2Sc2ccccc2S3)oc(N2CCOCC2)c1 + CC(=O)Nc1cccc(-n2c(=O)n(C3CC3)c(=O)c3c(Nc4ccc(I)cc4F)n(C)c(=O)c(C)c32)c1 [Trametinib] (partner 0.02 µM)")
0.64
>>> reported_measurement("COc1nc(C)cnc1NS(=O)(=O)c1cccnc1-c1ccc(-c2nnco2)cc1 [Zibotentan] + C[C@@H](Oc1cc(-c2cnn(C3CCNCC3)c2)cnc1N)c1c(Cl)ccc(F)c1Cl [Crizotinib] (partner 1 µM)")
0.853
>>> reported_measurement("COc1nc(C)cnc1NS(=O)(=O)c1cccnc1-c1ccc(-c2nnco2)cc1 [Zibotentan] + COc1cc2c(Oc3ccc(NC(=O)C4(C(=O)Nc5ccc(F)cc5)CC4)cc3F)ccnc2cc1OCCCN1CCOCC1 [Foretinib] (partner 0.25 µM)")
1.18
>>> reported_measurement("O=c1cc(-c2cccc3c2Sc2ccccc2S3)oc(N2CCOCC2)c1 + N=C(N)NC(=N)NCCc1ccccc1 [Phenformin] (partner 250 µM)")
0.683

-- ask Return reported relative viability; argument: O=c1cc(-c2cccc3c2Sc2ccccc2S3)oc(N2CCOCC2)c1 + Cc1nc(Nc2ncc(C(=O)Nc3c(C)cccc3Cl)s2)cc(N2CCN(CCO)CC2)n1 [Dasatinib] (partner 0.075 µM)
-- reply 0.488

-- ask Field request: relative viability | item: O=c1cc(-c2cccc3c2Sc2ccccc2S3)oc(N2CCOCC2)c1 + O=C(CCCCCCC(=O)Nc1ccccc1)NO [Vorinostat] (partner 1 µM)
-- reply 0.9

---

# System: NCI-H2126
# test.method.notes: relative viability (nuclei count vs DMSO), 5 days (fraction); higher = more cells survive
# condition.info: first compound 20 µM
relative viability by entry:
Form: value (number only, do not type unit).

>>> reported_measurement("COCC1(CO)C(=O)C2CCN1CC2 (centres undefined) [PRIMA-1MET] + N=C(N)NC(=N)NCCc1ccccc1 [Phenformin] (partner 250 µM)")
0.531
>>> reported_measurement("COCC1(CO)C(=O)C2CCN1CC2 (centres undefined) [PRIMA-1MET] + CC(C)C[C@H](NC(=O)[C@H](Cc1ccccc1)NC(=O)c1cnccn1)B(O)O [Bortezomib] (partner 0.002 µM)")
1.1
>>> reported_measurement("COCC1(CO)C(=O)C2CCN1CC2 (centres undefined) [PRIMA-1MET] + Nc1ncn([C@H]2C[C@H](O)[C@@H](CO)O2)c(=O)n1 [Decitabine] (partner 2 µM)")
0.619

-- ask Quick check: relative viability on NCI-H2126, item COCC1(CO)C(=O)C2CCN1CC2 (centres undefined) [PRIMA-1MET] + COc1cccc2cc(-c3nc([C@H]4CC[C@H](C(=O)O)CC4)n4ncnc(N)c34)[nH]c12 [OSI-027] (partner 0.5 µM) ?
-- reply 0.675

---

# System: NCI-H441
# test.method.notes: relative viability (nuclei count vs DMSO), 5 days (fraction); higher = more cells survive
# condition.info: first compound 2.53 µM
assay.metric: relative viability
A bare number is all that is needed in reply.

>>> reported_measurement("O=c1cc(-c2cccc3c2Sc2ccccc2S3)oc(N2CCOCC2)c1 + CS(=O)(=O)N1CCN(Cc2cc3nc(-c4cccc5[nH]ncc45)nc(N4CCOCC4)c3s2)CC1 [Pictilisib] (partner 1 µM)")
0.426
>>> reported_measurement("O=c1cc(-c2cccc3c2Sc2ccccc2S3)oc(N2CCOCC2)c1 + COc1cc2c(Oc3ccc(NC(=O)C4(C(=O)Nc5ccc(F)cc5)CC4)cc3F)ccnc2cc1OCCCN1CCOCC1 [Foretinib] (partner 0.25 µM)")
0.882

Consider the additional molecule presented here.
-- ask I'd like to know its relative viability. The molecule in question is O=c1cc(-c2cccc3c2Sc2ccccc2S3)oc(N2CCOCC2)c1 + CC1(C)CCC(c2ccc(Cl)cc2)=C(CN2CCN(c3ccc(C(=O)NS(=O)(=O)c4ccc(N[C@H](CCN5CCOCC5)CSc5ccccc5)c(S(=O)(=O)C(F)(F)F)c4)cc3)CC2)C1 [Navitoclax] (partner 0.5 µM)
-- reply 0.776

---

# System: NCI-H2087
# test.method.notes: relative viability (nuclei count vs DMSO), 5 days (fraction); higher = more cells survive
# condition.info: first compound 0.03162 µM
Each record here notes measured relative viability.
API doc: respond with a numeric literal and nothing else, no unit.

-- ask What value of relative viability has been reported for the following molecule? CCN(CC)CCCCNc1ncc2cc(-c3cc(OC)cc(OC)c3)c(NC(=O)NC(C)(C)C)nc2n1 + CC(=O)Nc1cccc(-n2c(=O)n(C3CC3)c(=O)c3c(Nc4ccc(I)cc4F)n(C)c(=O)c(C)c32)c1 [Trametinib] (partner 0.02 µM)
-- reply 0.171

-- ask Param item = O=c1cc(N2CCOCC2)oc2c(-c3cccc4c3sc3ccccc34)cccc12 + CC(=O)Nc1cccc(-n2c(=O)n(C3CC3)c(=O)c3c(Nc4ccc(I)cc4F)n(C)c(=O)c(C)c32)c1 [Trametinib] (partner 0.02 µM) ; retrieve measured relative viability.
-- reply 0.195

-- ask Name the reported relative viability value associated with the molecule CCN(CC)CCCCNc1ncc2cc(-c3cc(OC)cc(OC)c3)c(NC(=O)NC(C)(C)C)nc2n1 + Nc1nc2[nH]cc(CCc3ccc(C(=O)N[C@@H](CCC(=O)O)C(=O)O)cc3)c2c(=O)[nH]1 [Pemetrexed] (partner 0.2 µM)
-- reply 0.637

-- ask # query: relative viability of entry CCN(CC)CCCCNc1ncc2cc(-c3cc(OC)cc(OC)c3)c(NC(=O)NC(C)(C)C)nc2n1 + CC(C)C[C@H](NC(=O)[C@H](Cc1ccccc1)NC(=O)c1cnccn1)B(O)O [Bortezomib] (partner 0.002 µM)
-- reply 0.909

-- ask Give its relative viability value. Item: CCN(CC)CCCCNc1ncc2cc(-c3cc(OC)cc(OC)c3)c(NC(=O)NC(C)(C)C)nc2n1 + COc1cc2c(Oc3ccc(NC(=O)C4(C(=O)Nc5ccc(F)cc5)CC4)cc3F)ccnc2cc1OCCCN1CCOCC1 [Foretinib] (partner 0.25 µM)
-- reply 1.13

-- ask What value of relative viability has been reported for the following molecule? CCN(CC)CCCCNc1ncc2cc(-c3cc(OC)cc(OC)c3)c(NC(=O)NC(C)(C)C)nc2n1 + CS(=O)(=O)CCNCc1ccc(-c2ccc3ncnc(Nc4ccc(OCc5cccc(F)c5)c(Cl)c4)c3c2)o1 [Lapatinib] (partner 2 µM)
-- reply 0.99

-- ask Give the measured relative viability of O=c1cc(N2CCOCC2)oc2c(-c3cccc4c3sc3ccccc34)cccc12 + Nc1nc2[nH]cc(CCc3ccc(C(=O)N[C@@H](CCC(=O)O)C(=O)O)cc3)c2c(=O)[nH]1 [Pemetrexed] (partner 0.2 µM) .
-- reply 0.633

-- ask // query relative viability value for entry CCN(CC)CCCCNc1ncc2cc(-c3cc(OC)cc(OC)c3)c(NC(=O)NC(C)(C)C)nc2n1 + Cc1nc(NC(=O)N2CCC[C@H]2C(N)=O)sc1-c1ccnc(C(C)(C)C(F)(F)F)c1 [Alpelisib] (partner 2 µM)
-- reply 1.03
